Below, each of the molecules is paired with its reported logP value.
assay: method code SF-AS, from DOI: 10.1021/jm00234a001, PMID: 1003419
# output: bare number, no unit

Challenge: GET /values?readout=logP&item= CC(=O)Nc1c(I)c(C(=O)N[C@H]2C(O)O[C@H](CO)[C@@H](O)[C@@H]2O)c(I)c(N(C)C(C)=O)c1I (some centres undefined)
Response given: -1.89

Challenge: Then what about the molecule `CNC(=O)c1c(I)c(NC(C)=O)c(I)c(O[C@@H]2O[C@H](CO)[C@@H](O)[C@H](O)[C@H]2O)c1I` ?
Response given: -1.49

Challenge: For `OC[C@H]1O[C@@H](Oc2ccc(I)c(O[C@@H]3O[C@H](CO)[C@@H](O)[C@H](O)[C@H]3O)c2I)[C@H](O)[C@@H](O)[C@@H]1O` then?
Response given: -1.31

Challenge: Lookup `Oc1c(I)cc(I)c(O)c1I`
Response given: 1.68

The measurements presented in this section are drawn from the SangsterLogP compilation.
